B1: KRT13 (parent)
chain: KTIEELRDKILTATIENNRVILEI

Variants of: B1
Assay comment: protein stability index of a GFP-peptide fusion (GPS, HEK-293T) (PSI 1-6); higher = more stable;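 further: lentivirally expressed fusions sorted by FACS into six bins by GFP to DsRed ratio, PSI derived from sequencing read proportions per bin multiplied by bin number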
Condition: c terminus: a fixed tail appended
Property: protein stability index
Number only, no unit.

>>> print(df.to_string())
    var  endpoint_result
0  R19T             2.99

Please find the next variant below.
Please list protein stability index recorded for the variant V20E 2.27

Numbers sourced from the supplement of paper PMC10567573.
